Molecular target: UniProt Q8TDV5
Sequence (Q8TDV5 whole entry): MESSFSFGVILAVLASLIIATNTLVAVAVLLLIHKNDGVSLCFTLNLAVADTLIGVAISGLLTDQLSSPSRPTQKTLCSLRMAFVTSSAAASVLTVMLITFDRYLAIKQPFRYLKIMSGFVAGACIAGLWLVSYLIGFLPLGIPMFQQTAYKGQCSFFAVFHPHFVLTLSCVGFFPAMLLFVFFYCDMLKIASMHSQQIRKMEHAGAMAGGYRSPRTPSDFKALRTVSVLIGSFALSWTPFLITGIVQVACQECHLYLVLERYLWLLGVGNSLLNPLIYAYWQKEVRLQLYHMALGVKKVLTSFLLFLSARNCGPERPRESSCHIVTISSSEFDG
Test: Agonist activity at human GPR119 expressed in Flp-In-T-Rex-HEK293 cells after 30 mins by cAMP accumulation assay
With a cut-off of 60 nM, any EC50 strictly below it is called 1 (yes); any EC50 meeting it or above is called 0 (no).

1. CC(C)OC(=O)N1CCC(n2ncc3cc(-c4ccc(S(C)(=O)=O)nc4)ncc32)CC1 = 0 (no)
2. CC(C)OC(=O)N1CCC(n2ncc3cc(-c4cc(F)c(C(N)=O)cc4F)ncc32)CC1 = 1 (yes)
3. CC(C)(C)OC(=O)N1CCC(n2nnc3cc(-c4ccc(S(C)(=O)=O)cc4)ccc32)CC1 = 0 (no)
4. CC(C)(OC(=O)N1CCC(n2ncc3cc(-c4ccc(S(C)(=O)=O)cc4)ncc32)CC1)C(F)F = 1 (yes)
5. CCc1cnc(N2CCC(n3ncc4cc(-c5ccc(S(C)(=O)=O)cc5F)ncc43)CC2)nc1 = 1 (yes)
6. CC(C)(C)OC(=O)N1CCC(n2ncc3cc(-c4ccc(S(C)(=O)=O)cc4)ncc32)CC1 = 1 (yes)
7. CCCNC(=O)c1cc(F)c(-c2cc3cnn(C4CCN(C(=O)OC(C)C)CC4)c3cn2)cc1F = 1 (yes)
8. CCNC(=O)c1cc(F)c(-c2cc3cnn(C4CCN(C(=O)OC(C)C)CC4)c3cn2)cc1F = 1 (yes)
9. CC(C)OC(=O)N1CCC(n2ncc3cc(Oc4cccc(S(C)(=O)=O)c4)ncc32)CC1 = 0 (no)
10. CC(C)COC(=O)N1CCC(n2ncc3cc(-c4ccc(S(C)(=O)=O)cc4)ncc32)CC1 = 1 (yes)
11. CC(C)OC(=O)N1CCC(n2ncc3cc(-c4cc(F)c(C(=O)NCCO)cc4F)ncc32)CC1 = 0 (no)
12. CC(C)OC(=O)N1CCC(n2ncc3cc(Oc4ccc(S(C)(=O)=O)cc4)ncc32)CC1 = 0 (no)
13. CC(C)OC(=O)N1CCC(n2ncc3cc(-c4ccc(C(N)=O)cc4F)ncc32)CC1 = 0 (no)
14. CC(C)OC(=O)N1CCC(n2ncc3cc(-c4ccc(S(C)(=O)=O)cc4)ncc32)CC1 = 1 (yes)
15. CC(C)(OC(=O)N1CCC(n2ncc3cc(-c4ccc(S(C)(=O)=O)cc4F)ncc32)CC1)C(F)F = 1 (yes)
16. CC(C)CCN1CCC(n2ncc3cc(-c4ccc(S(C)(=O)=O)cc4)ncc32)CC1 = 0 (no)
17. CC(C)OC(=O)N1CCC(n2ncc3cc(-c4cc(F)c(C(=O)N(C)C)cc4F)ncc32)CC1 = 1 (yes)
18. CC(C)OC(=O)N1CCC(n2ncc3cc(-c4ccc(S(C)(=O)=O)cc4F)ncc32)CC1 = 1 (yes)

* * *

assay: Clearance in Sprague-Dawley rat at 3 mg/kg, iv; format: ADME, organism-based; details: in vivo
value type: clearance (mL/min/kg)

1. CCc1cnc(N2CCC(n3ncc4cc(-c5ccc(S(C)(=O)=O)cc5F)ncc43)CC2)nc1 = 12.7

* * *

assay: Drug metabolism in human liver microsomes after 15 mins; type: ADME; conditions: read-out: Drug metabolism
Catalogue of molecules with associated metabolised at 0.25 h
value type: metabolised at 0.25 h (%)

1. CC(C)OC(=O)N1CCC(n2ncc3cc(-c4ccc(S(C)(=O)=O)cc4)ncc32)CC1 = 24.1
2. CC(C)(OC(=O)N1CCC(n2ncc3cc(-c4ccc(S(C)(=O)=O)cc4F)ncc32)CC1)C(F)F = 2.1
3. CCc1cnc(N2CCC(n3ncc4cc(-c5ccc(S(C)(=O)=O)cc5F)ncc43)CC2)nc1 = 14.3
4. Cc1ccc(N2CCC(n3ncc4cc(-c5ccc(S(C)(=O)=O)cc5)ncc43)CC2)nc1 = 44.1
5. CC(C)COC(=O)N1CCC(n2ncc3cc(-c4ccc(S(C)(=O)=O)cc4)ncc32)CC1 = 79.8
6. CC(C)(OC(=O)N1CCC(n2ncc3cc(-c4ccc(S(C)(=O)=O)cc4)ncc32)CC1)C(F)F = 3.9
7. CCc1cnc(N2CCC(n3ncc4cc(-c5cc(F)c(C(=O)NCCO)cc5F)ncc43)CC2)nc1 = 35.8
8. CCc1cnc(N2CCC(n3ncc4cc(-c5ccc(S(C)(=O)=O)cc5)ncc43)CC2)nc1 = 20.3

* * *

assay: Half life in Sprague-Dawley rat at 3 mg/kg, iv; format: ADME, organism-based; settings: in vivo
value type: half-life (min)

1) CCc1cnc(N2CCC(n3ncc4cc(-c5ccc(S(C)(=O)=O)cc5F)ncc43)CC2)nc1 = 37

* * *

Catalogue of compounds with associated EC50
Target: Glucose-dependent insulinotropic receptor (Homo sapiens, UniProt Q8TDV5)
Sequence (Q8TDV5 whole entry): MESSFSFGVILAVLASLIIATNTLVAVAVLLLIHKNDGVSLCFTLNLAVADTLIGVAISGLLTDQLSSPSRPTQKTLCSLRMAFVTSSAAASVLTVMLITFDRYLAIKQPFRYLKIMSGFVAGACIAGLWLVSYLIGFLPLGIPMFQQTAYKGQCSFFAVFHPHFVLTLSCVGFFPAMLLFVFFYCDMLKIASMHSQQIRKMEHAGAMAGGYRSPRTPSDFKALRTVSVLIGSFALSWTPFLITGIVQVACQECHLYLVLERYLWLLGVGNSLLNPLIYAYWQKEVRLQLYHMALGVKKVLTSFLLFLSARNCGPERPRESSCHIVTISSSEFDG
Assay: Agonist activity at human GPR119 expressed in Flp-In-T-Rex-HEK293 cells after 30 mins by cAMP accumulation assay
value type: EC50 (nM)

1. CCc1cnc(N2CCC(n3ncc4cc(-c5cc(F)c(C(=O)NCCO)cc5F)ncc43)CC2)nc1 = 15
2. CCc1cnc(N2CCC(n3ncc4cc(-c5ccc(S(C)(=O)=O)cc5)ncc43)CC2)nc1 = 13
3. CC(C)(C)OC(=O)N1CCC(n2ncc3cc(-c4ccc(S(C)(=O)=O)cc4)ccc32)CC1 = 31
4. Cc1ccc(N2CCC(n3ncc4cc(-c5ccc(S(C)(=O)=O)cc5)ncc43)CC2)nc1 = 30

* * *

assay: Volume of distribution at steady state in Sprague-Dawley rat at 3 mg/kg, iv; assay type: ADME, organism-based; settings: in vivo, read-out: Vdss
value type: Vd (L/kg)

1) CCc1cnc(N2CCC(n3ncc4cc(-c5ccc(S(C)(=O)=O)cc5F)ncc43)CC2)nc1 = 0.537

* * *

assay: Thermodynamic solubility of the compound in phosphate buffer at pH 6.8; format: physicochemical; conditions: read-out: Therm_solubility
value type: solubility thermodynamic (µg/mL)

1) CCc1cnc(N2CCC(n3ncc4cc(-c5cc(F)c(C(=O)NCCO)cc5F)ncc43)CC2)nc1 = 0.69
2) CC(C)OC(=O)N1CCC(n2ncc3cc(-c4ccc(S(C)(=O)=O)cc4)ncc32)CC1 = 0.67
3) CCc1cnc(N2CCC(n3ncc4cc(-c5ccc(S(C)(=O)=O)cc5F)ncc43)CC2)nc1 = 0.34

* * *

assay: Oral bioavailability in Sprague-Dawley rat at 10 mg/kg; assay type: ADME, organism-based; details: in vivo
value type: bioavailability

1. CCc1cnc(N2CCC(n3ncc4cc(-c5ccc(S(C)(=O)=O)cc5F)ncc43)CC2)nc1 = 12.6%
